procedure.text: Cmax in Sprague-Dawley rat at 1 mg/kg, iv by LC-MS/MS method
Type: ADME, organism-based
run.parameters: in vivo
measurement.name: Cmax (ng/mL)
Note: unit ng/mL is implicit; provide only the numeric part.

Q) For the compound N#Cc1cccc(-c2ccc(=O)n(Cc3cccc(-c4ncc(OCC5CCN(CCCCCC(=O)NCC67CC8CC(CC(C8)C6)C7)CC5)cn4)c3)n2)c1 , give its reported Cmax.
A) 1630

----------
procedure.text: Tmax in Sprague-Dawley rat at 1 mg/kg, iv by LC-MS/MS method
Type: ADME, organism-based
run.parameters: in vivo
measurement.name: Tmax (min)
Note: unit min is implicit; provide only the numeric part.

Q) For the compound N#Cc1cccc(-c2ccc(=O)n(Cc3cccc(-c4ncc(OCC5CCN(CCCCCC(=O)NCC67CC8CC(CC(C8)C6)C7)CC5)cn4)c3)n2)c1 , give its reported Tmax.
A) 4.98

----------
procedure.text: Clearance in Sprague-Dawley rat at 10 mg/kg, po by LC-MS/MS method
Type: ADME, organism-based
run.parameters: in vivo
measurement.name: CL/F (L/h/kg)
Note: unit L/h/kg is implicit; provide only the numeric part.

Q) For the compound N#Cc1cccc(-c2ccc(=O)n(Cc3cccc(-c4ncc(OCC5CCN(CCCCCC(=O)NCC67CC8CC(CC(C8)C6)C7)CC5)cn4)c3)n2)c1 , give its reported CL/F.
A) 199

----------
procedure.text: Mean residence time (0 to infinity) in Sprague-Dawley rat at 10 mg/kg, po by LC-MS/MS method
Format: ADME, organism-based
run.parameters: in vivo
measurement.name: MRT inf (h)
Note: unit h is implicit; provide only the numeric part.

Q) For the compound N#Cc1cccc(-c2ccc(=O)n(Cc3cccc(-c4ncc(OCC5CCN(CCCCCC(=O)NCC67CC8CC(CC(C8)C6)C7)CC5)cn4)c3)n2)c1 , give its reported MRT inf.
A) 3.73

----------
Reported IC50 values follow for various molecules
Test system: BaF3
procedure.text: Antiproliferative activity against mouse BaF3 cells harboring TPR-MET Y1230H mutant fusion protein incubated for 72 hrs by CellTiter-Glo reagent based assay
Type: functional, cell-based
run.parameters: BaF3, 72 h
Note: unit nM is implicit; provide only the numeric part.

INSERT INTO measurements (smiles_text, target_system, measurement_name, unit_abbrev, observed_value) VALUES
  ('CN1CCC(COc2cnc(-c3cccc(Cn4nc(-c5cccc(C#N)c5)ccc4=O)c3)nc2)CC1', 'BaF3', 'IC50', 'nM', 1840);

Would you kindly look at the next entry?
Q) For the molecule N#Cc1cccc(-c2ccc(=O)n(Cc3cccc(-c4ncc(OCC5CCN(CCCCCC(=O)NCC67CC8CC(CC(C8)C6)C7)CC5)cn4)c3)n2)c1 , give its reported IC50.
A) 378

----------
procedure.text: Clearance in Sprague-Dawley rat at 1 mg/kg, iv by LC-MS/MS method
Assay type: ADME, organism-based
run.parameters: in vivo
measurement.name: clearance (mL/min/kg)
Note: unit mL/min/kg is implicit; provide only the numeric part.

Q) For the compound N#Cc1cccc(-c2ccc(=O)n(Cc3cccc(-c4ncc(OCC5CCN(CCCCCC(=O)NCC67CC8CC(CC(C8)C6)C7)CC5)cn4)c3)n2)c1 , give its reported clearance.
A) 17.5

----------
procedure.text: AUC(0 to infinity) in Sprague-Dawley rat at 10 mg/kg, po by LC-MS/MS method
Assay type: ADME, organism-based
run.parameters: in vivo
measurement.name: AUC(0-inf) (ng·h/mL)
Note: unit ng·h/mL is implicit; provide only the numeric part.

Q) For the molecule N#Cc1cccc(-c2ccc(=O)n(Cc3cccc(-c4ncc(OCC5CCN(CCCCCC(=O)NCC67CC8CC(CC(C8)C6)C7)CC5)cn4)c3)n2)c1 , give its reported AUC(0-inf).
A) 74.5
